molecular target: BRD3 (BD2) (Homo sapiens, UniProt Q15059); construct: tagged bromodomains and acetylated histone peptides as; assay: AlphaScreen bromodomain binding assay, BRD3 BD2; conditions: Fig. 1b; italicized values from the literature (italics not visible)
Sequence (Q15059 306-415 limits assumed): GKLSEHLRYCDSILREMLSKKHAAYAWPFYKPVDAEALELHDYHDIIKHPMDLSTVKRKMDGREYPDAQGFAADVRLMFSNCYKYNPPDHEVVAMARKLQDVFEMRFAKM
result_type: IC50 (nM)
Numbers only, in nM.

Exam item: # input molecule: CN(C)C(=O)c1cc2cnc(Nc3ccc(-c4csc5c(=O)cc(N6CCOCC6)oc45)cc3)nc2n1C1CCCC1 ; wanted: its IC50
Marked response: 226

* * *

biological target: mTOR (Homo sapiens, UniProt P42345)
result_type: pIC50
Answers are plain numbers, as −log10 of the molar value.

Exam item: Record request: pIC50 value, item CN(C)C(=O)c1cc2cnc(Nc3ccc(-c4csc5c(=O)cc(N6CCOCC6)oc45)cc3)nc2n1C1CCCC1
Marked response: 5.16

* * *

molecular target: CDK9 (Homo sapiens, UniProt P50750)
Sequence (P50750 whole entry): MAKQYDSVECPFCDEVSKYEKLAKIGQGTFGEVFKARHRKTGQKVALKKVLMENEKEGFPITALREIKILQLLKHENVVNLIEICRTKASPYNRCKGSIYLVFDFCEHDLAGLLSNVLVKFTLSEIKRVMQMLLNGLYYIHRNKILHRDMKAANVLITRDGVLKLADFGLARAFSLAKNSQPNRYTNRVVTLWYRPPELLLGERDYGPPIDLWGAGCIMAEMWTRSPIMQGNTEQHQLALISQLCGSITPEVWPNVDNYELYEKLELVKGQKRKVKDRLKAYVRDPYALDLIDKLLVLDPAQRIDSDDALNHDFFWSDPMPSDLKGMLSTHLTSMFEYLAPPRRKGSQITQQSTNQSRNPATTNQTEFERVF
Sequence (O60563 whole entry partner): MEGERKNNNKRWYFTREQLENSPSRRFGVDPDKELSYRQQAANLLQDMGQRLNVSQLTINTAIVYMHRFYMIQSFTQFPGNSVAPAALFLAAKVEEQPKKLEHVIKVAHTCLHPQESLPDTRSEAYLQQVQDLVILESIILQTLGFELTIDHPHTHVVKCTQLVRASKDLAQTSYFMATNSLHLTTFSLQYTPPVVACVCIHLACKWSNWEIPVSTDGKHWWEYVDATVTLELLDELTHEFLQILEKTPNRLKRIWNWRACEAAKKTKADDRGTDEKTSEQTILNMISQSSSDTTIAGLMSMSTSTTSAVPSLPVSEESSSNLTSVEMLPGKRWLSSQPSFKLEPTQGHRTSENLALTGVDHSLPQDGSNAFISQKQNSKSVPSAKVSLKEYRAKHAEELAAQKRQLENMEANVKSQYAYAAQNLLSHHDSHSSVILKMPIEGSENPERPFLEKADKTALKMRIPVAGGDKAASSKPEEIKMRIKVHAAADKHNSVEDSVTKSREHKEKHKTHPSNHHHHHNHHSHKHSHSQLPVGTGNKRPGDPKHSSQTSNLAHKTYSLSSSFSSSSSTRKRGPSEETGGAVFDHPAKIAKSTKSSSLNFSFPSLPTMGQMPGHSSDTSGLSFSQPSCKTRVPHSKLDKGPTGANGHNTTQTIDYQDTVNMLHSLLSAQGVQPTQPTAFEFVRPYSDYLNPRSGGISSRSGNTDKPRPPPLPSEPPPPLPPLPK
pIC50: −log10 of the molar value.
result_type: pIC50

Exam item: What reported pIC50 corresponds to CN(C)C(=O)c1cc2cnc(Nc3ccc(-c4csc5c(=O)cc(N6CCOCC6)oc45)cc3)nc2n1C1CCCC1 on CDK9 (Homo sapiens, UniProt P50750)?
Marked response: > 8.70

All values here come from paper PMC7385619.
